test: Cytotoxicity across human cell types (summary ranges); format: cell-based; conditions: human, human cell lines and primary cells (all cell types tested); across all of the cell types tested; read-out: mean CC50 range
ENDPOINT_NAME: CC50

Entry under test: `COc1ccc(C[C@H](N)C(=O)N[C@H]2[C@@H](O)[C@H](n3cnc4c(N(C)C)ncnc43)O[C@@H]2CO)cc1` . Its CC50 was 0.31 to 1.6 µM

====

experiment: Cytotoxicity in HepG2-NTCP; type: cell-based; details: human, HepG2-NTCP cells
ENDPOINT_NAME: CC50 (µM)
Provide the reading as a plain figure in µM.

Entry under test: CC(C)(CC1(c2ccc(-c3cnn(C4CC4)n3)cc2)NC(=N)N(C(COC(=O)NC2(C(F)F)CC2)c2ccc(Cl)c(-c3ncnn3C(F)F)c2)C1=O)C(F)(F)F (stereo not shown) . Its CC50 was 8.4

====

assay: In vivo pharmacokinetics in dog; design: species or system Beagle dog; settings: beagle, plasma, 1 mg/kg IV and 5 mg/kg PO, read-out: F% (oral bioavailability)
ENDPOINT_NAME: bioavailability (%)
Provide the reading as a plain figure in %.

Entry under test: CC(C)(CC1(c2ccc(-c3cnn(C4CC4)n3)cc2)NC(=N)N(C(COC(=O)NC2(C(F)F)CC2)c2ccc(Cl)c(-c3ncnn3C(F)F)c2)C1=O)C(F)(F)F (stereo not shown) [GS-9770] . Its bioavailability was 100

====

test system: HBV; assay: microbe, parasite or virus in culture; details: Hepatitis B virus
ENDPOINT_NAME: pEC50
Friendly reminder that pEC50 comes from taking -log10 of the concentration in mol/L.

Entry under test: CC(C)(CC1(c2ccc(-c3cnn(C4CC4)n3)cc2)NC(=N)N(C(COC(=O)NC2(C(F)F)CC2)c2ccc(Cl)c(-c3ncnn3C(F)F)c2)C1=O)C(F)(F)F (stereo not shown) . Its pEC50 was 4.96

====

The entries below come with measured CC50 values attached.
test: Cytotoxicity in unstimulated PBMCs; type: cell-based; conditions: human, unstimulated (resting) PBMCs
Provide the reading as a plain figure in µM.

COc1ccc(C[C@H](N)C(=O)N[C@H]2[C@@H](O)[C@H](n3cnc4c(N(C)C)ncnc43)O[C@@H]2CO)cc1    0.54

The record that follows has no CC50 shown yet.
Entry under test: CC(C)(CC1(c2ccc(-c3cnn(C4CC4)n3)cc2)NC(=N)N(C(COC(=O)NC2(C(F)F)CC2)c2ccc(Cl)c(-c3ncnn3C(F)F)c2)C1=O)C(F)(F)F (centres unmarked) . Its CC50 was 9.1

====

test: In vivo pharmacokinetics in rat; set-up: species or system Sprague-Dawley rat; conditions: male, Sprague-Dawley, plasma, 1 mg/kg IV, read-out: Vss
ENDPOINT_NAME: Vd (L/kg)
Provide the reading as a plain figure in L/kg.

Entry under test: CC(C)(CC1(c2ccc(-c3cnn(C4CC4)n3)cc2)NC(=N)N(C(COC(=O)NC2(C(F)F)CC2)c2ccc(Cl)c(-c3ncnn3C(F)F)c2)C1=O)C(F)(F)F (stereo not shown) . Its Vd was 2.7

====

The entries below come with measured CC50 values attached.
test: Cytotoxicity in Gal-PC3; type: cell-based; details: human, Gal-PC3 cells
Provide the reading as a plain figure in µM.

COc1ccc(C[C@H](N)C(=O)N[C@H]2[C@@H](O)[C@H](n3cnc4c(N(C)C)ncnc43)O[C@@H]2CO)cc1 [Puromycin, puromycin]    0.45

The record that follows has no CC50 shown yet.
Entry under test: CC(C)(CC1(c2ccc(-c3cnn(C4CC4)n3)cc2)NC(=N)N(C(COC(=O)NC2(C(F)F)CC2)c2ccc(Cl)c(-c3ncnn3C(F)F)c2)C1=O)C(F)(F)F (centres unmarked) [GS-9770] . Its CC50 was 15

Measured values drawn from paper PMC10989020 for this set.
